Values compiled from patent US10800784B2.

target: UniProt:Q15119; test: Inhibitory action of PDHK2 activity in vitro (residual PDH activity after PDHK reaction); settings: PDH/hPDHK2 complex solution, PDHK reaction at room temperature for 45 min, NADH absorbance at 340 nm; read-out: kPDK2 IC50
MEASURED_PARAMETER: IC50 (nM)

In the examples that follow, each entry is paired with its recorded IC50.
[[record]]
molecular_string = "C[C@H]1CN(C(=O)c2ccnc(-c3ccc(C#N)cc3)c2F)Cc2cnc([C@@](C)(O)C(F)(F)F)n21"
measured_parameter = "IC50"
value_measured = 7

[[record]]
molecular_string = "C[C@H]1CN(C(=O)c2cc(-c3ccccc3)nn2C)Cc2cnc([C@@](C)(O)C(F)(F)F)n21"
measured_parameter = "IC50"
value_measured = 5

[[record]]
molecular_string = "C[C@H]1CN(C(=O)c2cc3n(n2)CCO3)Cc2onc([C@@](C)(O)C(F)(F)F)c21"
measured_parameter = "IC50"
value_measured = 12


(a) C[C@H]1CN(C(=O)c2ccnc(-c3ccc(F)cc3F)c2)Cc2cnc([C@@](C)(O)C(F)(F)F)n21
(b) C[C@H]1CN(C(=O)C2Cc3ccccc3C2)Cc2cnc([C@@](C)(O)C(F)(F)F)n21
Hi! Which is lower in terms of IC50, the first one a or the second one b ? Respond with the label that goes with your answer. a

(1) C[C@H]1CN(C(=O)c2c(Cl)c(-c3ccc(C#N)cc3)nn2C)Cc2cnc([C@@](C)(O)C(F)(F)F)n21
(2) C[C@H]1CN(C(=O)c2cccc3[nH]ncc23)Cc2onc([C@@](C)(O)C(F)(F)F)c21
Looking at recorded values for IC50, does 1 or 2 come in lower? // respond with label for picked entry 2

====

target: UniProtKB Q15119; test: Inhibitory action of PDHK2 activity in vitro (residual PDH activity after PDHK reaction); conditions: PDH/hPDHK2 complex solution, PDHK reaction at room temperature for 45 min, NADH absorbance at 340 nm; read-out: kPDK2 IC50
pIC50: −log10 of the molar value.
MEASURED_PARAMETER: pIC50

Worked cases, pIC50 given:
[[record]]
molecule = "C[C@H]1CN(C(=O)C2CCC(n3cccn3)CC2)Cc2cnc([C@@](C)(O)C(F)(F)F)n21 (some centres unmarked) [Example 60]"
measured_parameter = "pIC50"
value_measured = 8.05

[[record]]
molecule = "C[C@H]1CN(C(=O)c2ccc(C3CC3)cc2)Cc2cnc([C@@](C)(O)C(F)(F)F)n21 [Example 18]"
measured_parameter = "pIC50"
value_measured = 8.15

[[record]]
molecule = "C[C@H]1CN(C(=O)C(C)(C)c2ccc(C(=O)O)c(C3CC3)c2)Cc2onc([C@@](C)(O)C(F)(F)F)c21 [Example 116]"
measured_parameter = "pIC50"
value_measured = 7.49

[[record]]
molecule = "C[C@H]1CN(C(=O)C2(C)CN(c3ccc(F)cn3)C2)Cc2cnc([C@@](C)(O)C(F)(F)F)n21 [Example 90]"
measured_parameter = "pIC50"
value_measured = 7.35

[[record]]
molecule = "C[C@H]1CN(C(=O)c2c(C#N)c(C3CC3)nn2C)Cc2onc([C@@](C)(O)C(F)(F)F)c21 [Example 117]"
measured_parameter = "pIC50"
value_measured = 8.10

[[record]]
molecule = "C[C@H]1CN(C(=O)c2ccc3c(c2)OC(F)(F)O3)Cc2cnc([C@@](C)(O)C(F)(F)F)n21 [Example 11]"
measured_parameter = "pIC50"
value_measured = 7.82

[[record]]
molecule = "C[C@H]1CN(C(=O)c2n[nH]c3ccccc23)Cc2onc([C@@](C)(O)C(F)(F)F)c21 [Example 101]"
measured_parameter = "pIC50"
value_measured = 8.40

[[record]]
molecule = "C[C@H]1CN(C(=O)c2cncc(-c3ccc(F)cc3C#N)c2)Cc2cnc([C@@](C)(O)C(F)(F)F)n21 [Example 72]"
measured_parameter = "pIC50"
value_measured = 8.05


(A) C[C@H]1CN(C(=O)c2ccc(F)c(-c3ccc(F)cn3)c2)Cc2cnc([C@@](C)(O)C(F)(F)F)n21 [Example 70]
(B) C[C@H]1CN(C(=O)c2ccc(=O)n(C3CC3)c2)Cc2cnc([C@@](C)(O)C(F)(F)F)n21 [Example 24]
(C) C[C@H]1CN(C(=O)c2cc(-c3ccc(C#N)cc3)nn2C)Cc2cnc([C@@](C)(O)C(F)(F)F)n21 [Example 31]
(D) Cc1cc(-c2ccc(F)cc2C#N)ncc1C(=O)N1Cc2cnc([C@@](C)(O)C(F)(F)F)n2[C@@H](C)C1 [Example 59]
(E) C[C@H]1CN(C(=O)C2CCC(n3cc(Cl)cn3)CC2)Cc2cnc([C@@](C)(O)C(F)(F)F)n21 (some centres unmarked) [Example 89]
Ranking field: pIC50; order: falling. Dear reader, please state the labels in the requested order. D, A, C, E, B

(A) C[C@H]1CN(C(=O)c2cc(-c3ccc(Cl)cn3)nn2C)Cc2cnc([C@@](C)(O)C(F)(F)F)n21 [Example 66]
(B) C[C@H]1CN(C(=O)c2cc(C3CC3)nn2C)Cc2nnc([C@@](C)(O)C(F)(F)F)n21 [Example 123]
Short answer wanted: higher pIC50, A or B ? Kindly state the label of the option you pick. A
